pIC50: −log10 of the molar value.
Here, compounds appear alongside pIC50 reported for MBT domain-containing protein 1 (Homo sapiens, UniProt Q05BQ5) in the literature.
readout.label: pIC50

{"columns": ["compound", "result"],
 "data": [
  ["O=C(c1cccc(N2CCC(N3CCCC3)CC2)c1)N1CCCC1", "< 3.52"],
  ["O=C(c1ccc(C(=O)N2CC3CCC(C2)C3N2CCCC2)cc1)N1CC2CCC(C1)C2N1CCCC1 (stereo not given)", "< 5.00"],
  ["OCC1(CO)CN(CCc2ccc(N3CCC(N4CCCC4)CC3)cc2)C1", "< 3.52"],
  ["CNCCCCOc1ccc(Cc2ccccc2)cc1", "< 4.00"],
  ["CCN1Cc2ccc(NC(=O)c3ccc(C(=O)N4CCC(C5CCCN5)CC4)cc3Nc3ccccc3)cc2C1 (stereo not given)", 5.46]
]}
